# assay overview: NCI Yeast Anticancer Drug Screen. Data for the sgs1 mgt1 strain (AID 161);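 further: 0% = growth of cultures given vehicle only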
# applied conditions: S. cerevisiae sgs1 mgt1 strain, at 50.0 µM (retest, dose inferred, filed as 5.0), active compounds read high
About 79,000 compounds went through this panel and 15% of them were active in at least one assay; those are over-represented in the sample as a whole.
quantity name: growth inhibition (%)
// return numeric value only (unit: %, not printed)

Example cases with answers are listed next.
COc1ccc(/C=C2\CCC(CN3CCOCC3)C2=O)cc1 (stereo unspecified)
99
Cc1ccc(S(=O)(=O)NCCSCCSCCNS(=O)(=O)c2ccc(C)cc2)cc1
1

Kindly review the next compound as well.
[ask] Annotate the compound OC1c2cccn2-c2cc(Cl)ccc2SC1c1ccccc1 (stereo unspecified) with its measured growth inhibition.
[reply] 97
